molecular target: Neutrophil elastase (Homo sapiens, UniProt P08246); assay: Inhibition of human leukocyte elastase
Sequence (P08246 whole entry): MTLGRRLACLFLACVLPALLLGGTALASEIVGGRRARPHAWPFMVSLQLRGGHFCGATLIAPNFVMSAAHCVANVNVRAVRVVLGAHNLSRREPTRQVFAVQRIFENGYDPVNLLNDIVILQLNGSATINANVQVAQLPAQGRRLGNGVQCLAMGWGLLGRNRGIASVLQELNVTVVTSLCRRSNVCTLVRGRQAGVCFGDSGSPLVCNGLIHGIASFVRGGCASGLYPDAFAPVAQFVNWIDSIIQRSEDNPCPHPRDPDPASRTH
reported-metric: Ki (nM)

{"columns": ["chemical-smiles", "reported-metric", "units-label", "readout-value"],
 "data": [
  ["O=C1c2ccccc2S(=O)(=O)N1c1c(F)c(F)nc(F)c1F", "Ki", "nM", 28]
]}

---

molecular target: Bile salt-activated lipase (Bos taurus) (UniProt P30122); assay: Inhibition of cholesterol esterase
Sequence (P30122 whole entry, looked up): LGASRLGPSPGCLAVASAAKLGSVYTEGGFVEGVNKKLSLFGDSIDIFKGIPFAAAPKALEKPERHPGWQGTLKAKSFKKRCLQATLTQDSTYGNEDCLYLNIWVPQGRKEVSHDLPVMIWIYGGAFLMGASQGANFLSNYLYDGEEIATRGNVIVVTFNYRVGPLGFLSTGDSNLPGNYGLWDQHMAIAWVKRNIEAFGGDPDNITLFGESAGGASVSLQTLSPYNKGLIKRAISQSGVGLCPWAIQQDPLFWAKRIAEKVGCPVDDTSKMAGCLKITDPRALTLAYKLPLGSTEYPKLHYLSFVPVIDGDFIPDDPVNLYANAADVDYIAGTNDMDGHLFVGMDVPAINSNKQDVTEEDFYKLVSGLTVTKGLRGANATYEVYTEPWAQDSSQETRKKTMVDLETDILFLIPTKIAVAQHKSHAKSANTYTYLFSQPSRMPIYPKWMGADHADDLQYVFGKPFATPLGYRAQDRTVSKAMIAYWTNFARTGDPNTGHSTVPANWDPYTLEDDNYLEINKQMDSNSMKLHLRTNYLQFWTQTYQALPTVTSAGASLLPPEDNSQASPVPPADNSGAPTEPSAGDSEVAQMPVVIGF
Quick reference for IC50 among some compounds
reported-metric: IC50

{"columns": ["chemical-smiles", "readout-value"],
 "data": [
  ["O=C1C2=C(CCCC2)S(=O)(=O)N1c1ccncc1.[O-][Cl+3]([O-])([O-])O", "> 100 µM"],
  ["O=C1c2ccccc2S(=O)(=O)N1c1c(F)c(F)nc(F)c1F", "11 µM"],
  ["O=C1C2=C(CCCC2)S(=O)(=O)N1c1c(F)c(F)c(F)c(F)c1F", "> 100 µM"],
  ["O=C1C2=C(CCCC2)S(=O)(=O)N1c1ncc(F)cc1F", "> 100 µM"],
  ["O=C1C2=C(CCCC2)S(=O)(=O)N1c1cccc(Cl)n1", "> 100 µM"],
  ["CC1=C(c2ccccc2)C(=O)N(c2c(F)c(F)nc(F)c2F)S1(=O)=O", "> 100 µM"],
  ["CC1=C(C)S(=O)(=O)N(c2c(F)c(F)nc(F)c2F)C1=O", "> 100 µM"],
  ["O=C1C2=C(CCCC2)S(=O)(=O)N1c1c(F)c(F)nc(F)c1F", "> 100 µM"],
  ["O=C1C2=C(CCCC2)S(=O)(=O)N1c1cccc(Br)n1", "> 100 µM"]
]}

---

target: Neutrophil elastase (Homo sapiens); test: Inhibition of human leukocyte elastase

{"columns": ["chemical-smiles", "IC50"],
 "data": [
  ["O=C1c2ccccc2S(=O)(=O)N1c1c(F)c(F)nc(F)c1F", "0.081 µM"],
  ["O=C1C2=C(CCCC2)S(=O)(=O)N1c1cccc(Br)n1", "> 100 µM"],
  ["O=C1C2=C(CCCC2)S(=O)(=O)N1c1c(F)c(F)c(F)c(F)c1F", "> 100 µM"],
  ["O=C1C2=C(CCCC2)S(=O)(=O)N1c1ccncc1.[O-][Cl+3]([O-])([O-])O", "> 100 µM"],
  ["O=C1C2=C(CCCC2)S(=O)(=O)N1c1c(F)c(F)nc(F)c1F", "3.1 µM"],
  ["CC1=C(c2ccccc2)C(=O)N(c2c(F)c(F)nc(F)c2F)S1(=O)=O", "33 µM"],
  ["O=C1C2=C(CCCC2)S(=O)(=O)N1c1ncc(F)cc1F", "> 100 µM"],
  ["CC1=C(C)S(=O)(=O)N(c2c(F)c(F)nc(F)c2F)C1=O", "> 100 µM"],
  ["O=C1C2=C(CCCC2)S(=O)(=O)N1c1cccc(Cl)n1", "> 100 µM"]
]}
